- assay_system: T1, recombinant human LAG-3-Fc (human, UniProt P18627 23-450)
- T1 construct: also called human LAG-3 (R&D Systems cat no. 2319-L3); LAG3 antigen
- T1 sequence: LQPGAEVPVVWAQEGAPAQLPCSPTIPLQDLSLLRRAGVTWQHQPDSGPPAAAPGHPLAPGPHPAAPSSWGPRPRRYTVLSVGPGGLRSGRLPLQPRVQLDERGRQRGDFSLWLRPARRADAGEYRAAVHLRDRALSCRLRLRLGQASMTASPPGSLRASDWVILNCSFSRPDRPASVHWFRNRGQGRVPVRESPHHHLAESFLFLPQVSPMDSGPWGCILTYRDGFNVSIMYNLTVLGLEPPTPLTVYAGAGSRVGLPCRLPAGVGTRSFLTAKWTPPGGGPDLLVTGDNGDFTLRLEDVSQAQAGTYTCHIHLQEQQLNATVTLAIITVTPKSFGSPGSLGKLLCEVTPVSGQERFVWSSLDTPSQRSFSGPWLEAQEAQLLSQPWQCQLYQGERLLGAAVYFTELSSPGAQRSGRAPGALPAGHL
- experimental_protocol: BLI (Octet); human LAG-3-Fc amine-coupled to biosensor, VH in solution, 1:1 fit
Recorded kon for the following binders
# unit: M⁻¹ s⁻¹ | format: bare number

VH 1.2 (VHH, Human VH single domain antibody against LAG-3; It is VH 1.1 with S23A, P119Q, N57S and S58T; also called variant 2) VHH: EVQLVESGGGVVRPGGSLRLSCAASGFTFDDYGMSWVRQAPGKGLEWVSGIHWNGGSTGYADSVKGRFTISRDNAKNSLYLQMNSLRAEDTALYYCARIPREDCSSASCYTDAIDFWGQGTMVTVSS    24800

Please examine the following record next.
Answer with the recorded kon of variant 8 of VH 1.1 (VHH, 4) VHH: EVQLVESGGGVVRPGGSLRLSCAASGFTFNDYGMSWVRQAPGKGLEWVSGIHWNGGNSGYADSVKGRFTISRDNAKNSLYLQMNSLRAEDTALYYCARIPREDCSSTSCYTDAIDFWGPGTMVTVSS only. 96700

Ref: patent US20210015937A1
